- system: Nuclear receptor ROR-gamma (Mus musculus)
- test details: Secondary confirmation assay for inhibitors of ROR gamma transcriptional activity
- condition description: Drosophila S2 Gal4-RORgamma UAS-luciferase reporter, 20 h; series mostly up to 92.2 µM
Inconclusive results are not listed. Active and inactive are the calls of the source. The call rests on the fitted dose curve; in most records, active means well fitted inhibition curve with a large enough effect; inconclusive means small, poorly fitted or top-dose-only effect, or effect the other way; inactive means no such curve, though single readings can be large or run the other way.
recorded endpoint: Potency

Cc1ccc(OCCCC(=O)Nc2nc3ccccc3[nH]2)cc1: 7.24 µM (active)
CCOC(=O)C1CCN(CC(=O)Nc2cc(C)nn2-c2nc3ccccc3s2)CC1: 5.75 µM (active)
Cc1cc(C)n(-c2nc(SCC(=O)O)c3c4c(sc3n2)CCCC4)n1: 9.11 µM (active)
COc1cc(O)c(C(CC(=O)NCc2ccccc2)c2ccc3c(c2)OCO3)c(OC)c1 (configuration not stated): inactive
COc1cc(O)c(C(CC(=O)N2CCCC(C)C2)c2ccc(OC)c(OC)c2)c(OC)c1 (configuration not stated): 9.11 µM (active)
COc1cc(O)c(C(CC(=O)N2CCCC(c3ccccc3)C2)c2ccc3c(c2)OCO3)c(OC)c1 (configuration not stated): inactive
Cc1ccc(C(=O)O/N=C/c2ccc(N(C)C)cc2)cc1: 32.3 µM (active)
COc1cc(O)c(C(CC(=O)NC2CCC(C)CC2)c2ccc3c(c2)OCO3)c(OC)c1 (configuration not stated): inactive
Cc1ccc(O)c(C(CC(=O)NC2CCCCC2)c2ccccc2)c1 (configuration not stated): inactive
COc1cc(O)c(C(CC(=O)N2CCCCC2)c2ccc(C)cc2)c(OC)c1 (configuration not stated): 32.3 µM (active)
Cc1nn(-c2cc(C)c3ccccc3n2)c2c1C1C(C2)C1(C)C (configuration not stated): 3.63 µM (active)
CCC(=O)C1CCCN(C(=O)CC(c2ccc3c(c2)OCO3)c2c(O)cc(OC)cc2OC)C1 (configuration not stated): inactive

* * *

- system: Nuclear receptor ROR-gamma (Mus musculus) (UniProt P51450)
- Sequence (P51450 whole entry, looked up): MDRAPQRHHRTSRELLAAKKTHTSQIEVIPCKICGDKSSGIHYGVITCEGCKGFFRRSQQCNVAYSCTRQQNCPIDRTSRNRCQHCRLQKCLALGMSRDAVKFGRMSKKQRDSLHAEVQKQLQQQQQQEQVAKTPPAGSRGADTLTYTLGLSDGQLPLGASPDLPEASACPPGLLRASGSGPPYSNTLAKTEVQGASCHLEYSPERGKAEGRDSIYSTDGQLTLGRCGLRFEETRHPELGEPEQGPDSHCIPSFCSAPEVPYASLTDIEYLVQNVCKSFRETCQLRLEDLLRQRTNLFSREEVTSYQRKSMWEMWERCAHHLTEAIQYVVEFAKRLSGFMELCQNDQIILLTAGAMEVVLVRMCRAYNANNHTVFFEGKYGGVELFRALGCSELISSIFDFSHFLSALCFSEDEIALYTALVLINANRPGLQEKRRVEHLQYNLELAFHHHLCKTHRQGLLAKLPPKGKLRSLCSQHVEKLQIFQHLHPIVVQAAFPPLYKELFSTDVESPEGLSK
- test details: Secondary confirmation assay for inhibitors of ROR gamma transcriptional activity
- condition description: Drosophila S2 Gal4-RORgamma UAS-luciferase reporter, 20 h; series mostly up to 92.2 µM
Inconclusive results are not listed. Activity calls are given as the source filed them. The call rests on the fitted dose curve; in most records, active means well fitted inhibition curve with a large enough effect; inconclusive means small, poorly fitted or top-dose-only effect, or effect the other way; inactive means no such curve, though single readings can be large or run the other way.
Outcome codes: active, inactive

COc1cc(O)c(C(CC(=O)N2CCCC(C)C2)c2ccccc2OC)c(OC)c1 (stereo not given): inactive
CN1CCN(C(=O)CCN2C(=O)/C(=C\c3ccccc3F)SC2=S)CC1: active
COc1cc(O)c(C(CC(=O)N2CCCC(CN3CCCCC3)C2)c2ccc3c(c2)OCO3)c(OC)c1 (stereo not given): inactive
COc1ccc(C)c(O)c1C(CC(=O)N1CCCC(C)C1)c1ccc2c(c1)OCO2 (stereo not given): active
COc1cc(O)c(C(CC(=O)N2CCOCC2)c2ccc3c(c2)OCO3)c(OC)c1 (stereo not given): inactive
COc1cc(O)c(C(CC(=O)NC2CCCc3ccccc32)c2ccc3c(c2)OCO3)c(OC)c1 (stereo not given): inactive
Cc1cccc(-c2nc3cc(NC(=O)C4CCCO4)ccc3o2)c1 (stereo not given): active
CCOC(=O)c1sc(NC(=O)c2ccc(S(=O)(=O)N(C)C)cc2)nc1C: active
O=S(=O)(c1ccc(NC(=S)N/N=C/c2ccc(Oc3ccccc3)cc2)cc1)N1CCOCC1: active
COc1ccc(C(CC(=O)N2CCCC(C)C2)c2ccccc2)cc1 (stereo not given): inactive

* * *

- system: Nuclear receptor ROR-gamma (Mus musculus)
- test details: Secondary confirmation assay for inhibitors of ROR gamma transcriptional activity
- condition description: Drosophila S2 Gal4-RORgamma UAS-luciferase reporter, 20 h; series mostly up to 92.2 µM
Records with an inconclusive call do not appear. Calls of active or inactive are those of the source. Calls follow the shape of the dose curve; as a rule, active = well fitted inhibition curve with a large enough effect; inconclusive = small, poorly fitted or top-dose-only effect, or effect the other way; inactive = no such curve, though single readings can be large or run the other way.
Classes used: active, inactive

O=C(NC(=S)Nc1nc(-c2ccccc2)cs1)c1cccnc1: active
Cc1cc(C)c2sc(NC(=O)c3ccc(N4C(=O)CCC4=O)cc3)nc2c1: active
COc1ccc(-c2c[n+]3c(n2-c2ccc(C)cc2)CCCCC3)cc1: active
COc1cc(O)c(C(CC(=O)N2CCCC2)c2ccc3c(c2)OCO3)c(OC)c1 (stereo not given): inactive
COc1cc(O)c(C(CC(=O)N2CCCC(C#N)C2)c2ccc3c(c2)OCO3)c(OC)c1 (stereo not given): inactive
CC1CCCN(C(=O)CC(c2ccc3c(c2)OCO3)c2ccc(O)cc2O)C1 (stereo not given): inactive
COc1ccc(-c2nnc(-c3ccc(N(C)C)cc3)o2)cc1: active
COc1cc(OC)c(C(CC(=O)N2CC(C)CC(C)C2)c2ccc3c(c2)OCO3)c(OC)c1 (stereo not given): active
CCn1cc(C(=O)O)c(=O)c2cnc(N3CCN(C(=S)NC(=O)c4ccccc4)CC3)nc21: active
COc1cc(O)c(C(CC(=O)N2CCCC(C(=O)c3ccccc3)C2)c2ccc3c(c2)OCO3)c(OC)c1 (stereo not given): inactive
COc1cc(O)c(C(CC(=O)N(Cc2ccccc2)Cc2ccccc2)c2ccc3c(c2)OCO3)c(OC)c1 (stereo not given): inactive
COc1cc(O)c(C(CC(=O)N2CCCC(C(=O)N3CCCCC3)C2)c2ccc3c(c2)OCO3)c(OC)c1 (stereo not given): inactive
COc1cc(O)c(C(CC(=O)N2CCCC(C)C2)c2cccs2)c(OC)c1 (stereo not given): active
Cc1ccc(-c2cn(-c3ccccc3)c3[n+]2CCCS3)cc1: active
COc1cc(OC)c(C(CC(=O)N2CCCC(C)C2)c2ccc3c(c2)OCO3)c(OCc2ccccc2)c1 (stereo not given): active
COc1cc(O)c(C(CC(=O)N2CC(C)NC(C)C2)c2ccc3c(c2)OCO3)c(OC)c1 (stereo not given): inactive
O=C(CCCN1C(=O)/C(=C/c2ccccc2Cl)SC1=S)Nc1cccnc1: active
CCOC(=O)c1sc(NC(=O)c2cc3c(s2)CCC(C)C3)nc1C (stereo not given): active
COc1cc(O)c(C(CC(=O)N2CCc3ccccc3C2)c2ccc3c(c2)OCO3)c(OC)c1 (stereo not given): inactive
CCOc1ccc(-c2cc(CCCC(=O)NCc3cccnc3)no2)cc1: active

* * *

- system: Nuclear receptor ROR-gamma (Mus musculus)
- test details: Secondary confirmation assay for inhibitors of ROR gamma transcriptional activity
- condition description: Drosophila S2 Gal4-RORgamma UAS-luciferase reporter, 20 h; series mostly up to 92.2 µM
Inconclusive results are not listed. Calls of active or inactive are those of the source. The call rests on the fitted dose curve; in most records, active means well fitted inhibition curve with a large enough effect; inconclusive means small, poorly fitted or top-dose-only effect, or effect the other way; inactive means no such curve, though single readings can be large or run the other way.
Outcome codes: active, inactive

COc1ccccc1C(CC(=O)Nc1ccc(F)cc1)c1ccccc1 (centres undefined): inactive
COc1cc(O)c(C(CC(=O)NCC2CCCCC2)c2ccc3c(c2)OCO3)c(OC)c1 (centres undefined): inactive
O=C(/C=C/c1ccc(S(=O)(=O)N2CCOCC2)cc1)NC(=S)Nc1ccc(N2CCOCC2)cc1: active
Cc1ccc(C)c(/C=N/n2cc(-c3ccccc3)[nH]c2=S)c1: active
CCOC(=O)Cn1c(CN2CCc3ccccc3C2)nc2c1c(=O)n(C)c(=O)n2C: active
COc1ccccc1CNC(=O)[C@@H](NC(=O)C1CCN(C(=O)[C@@H]2CCCN2C(=O)OC(C)(C)C)CC1)C(C)C: active
CCC1CCCN(C(=O)CC(c2ccc3c(c2)OCO3)c2c(O)cc(OC)cc2OC)C1 (centres undefined): active
CC(C)[C@H](NC(=O)C1CCN(C(=O)[C@@H]2CCCN2C(=O)OC(C)(C)C)CC1)C(=O)NCc1ccc(F)cc1: active
COc1ccc(C(=O)/C=C/c2ccc(OC)cc2OC)c(O)c1: active

* * *

- system: Nuclear receptor ROR-gamma (Mus musculus)
- test details: Secondary confirmation assay for inhibitors of ROR gamma transcriptional activity
- condition description: Drosophila S2 Gal4-RORgamma UAS-luciferase reporter, 20 h; series mostly up to 92.2 µM
Results filed as inconclusive are left out. The source made the active and inactive calls. The call rests on the fitted dose curve; in most records, active means well fitted inhibition curve with a large enough effect; inconclusive means small, poorly fitted or top-dose-only effect, or effect the other way; inactive means no such curve, though single readings can be large or run the other way.
Classes used: active, inactive

O=C(CCCOc1ccccc1)Nc1nc2ccccc2[nH]1: active
COc1cc(O)c(C(CC(=O)N2CCCCC2)c2ccc(OC)c(OC)c2)c(OC)c1 (centres undefined): inactive
Cc1ccc(Sc2cncc3sc(C(N)=O)cc23)cc1: active
COc1cc(O)c(C(CC(=O)N2CCCC(C)C2)c2ccc(C(C)C)cc2)c(OC)c1 (centres undefined): active
COc1cc(O)c(C(CC(=O)N2CC(C)CC(C)C2)c2ccc3c(c2)OCCO3)c(OC)c1 (centres undefined): active
CC1CCCN(C(=O)CC(c2ccccc2)c2ccc(O)cc2)C1 (centres undefined): inactive
COc1cc(O)c(C(CC(=O)N2CCC(C)CC2)c2ccc(OC)c(OC)c2)c(OC)c1 (centres undefined): inactive
C[C@H]1O[C@@H](O[C@H]2[C@@H](O)C[C@@H](O[C@H]3[C@@H](O)C[C@H](O[C@H]4CC[C@@]5(C)[C@H](CC[C@@H]6[C@@H]5CC[C@]5(C)[C@@H](C7=CC(=O)OC7)CC[C@]65O)C4)O[C@@H]3C)O[C@@H]2C)C[C@H](O)[C@@H]1O: active
COc1cc(O)c(C(CC(=O)N2CC(C)CC(C)C2)c2ccc(O)cc2)c(OC)c1 (centres undefined): active
COc1ccc(C(CC(=O)N2CCCC(C)C2)c2c(O)cc(OC)cc2OC)c(OC)c1 (centres undefined): inactive
CCOc1ncccc1C(=O)OCC(=O)Nc1ccc(-c2nc3ccc(C)cc3s2)cc1: active
CC(C)(C)c1ccc([S+](=O)([O-])Nc2ccccc2C(O)(C(F)(F)F)C(F)(F)F)cc1: active
COc1cc(O)c(C(CC(=O)Nc2cccc3ccccc23)c2ccc3c(c2)OCO3)c(OC)c1 (centres undefined): inactive
COc1cc(C)nc(-n2nc(C)cc2OC)n1: active
COc1cc(O)c(C(CC(=O)N2CCCC(C)C2)c2ccc(C)cc2)c(OC)c1 (centres undefined): active
COc1cc(O)c(C(CC(=O)N2CC(C)CC(C)C2)c2ccc(N(C)C)cc2)c(OC)c1 (centres undefined): active
COc1cc(O)c(C(CC(=O)N2CCCC(C)C2)c2ccc3ccccc3c2)c(OC)c1 (centres undefined): active
COc1ccc(OC)c(NC(=S)N(CCc2c(C)[nH]c3ccccc23)Cc2cccs2)c1: active
COc1cc(OC)c(C(c2ccccc2)C(C)(C)C(=O)N2CC(C)CC(C)C2)c(OC)c1 (centres undefined): active
